Examples of molecules with documented melting point follow.

Below, 3 molecules whose answers are already recorded.
# molecule, value-reported
rows = [
    ("CC(C)c1cccc(C(C)C)c1NC(=O)NC1CCC(C(C)(C)C)CC1 (configuration not stated)", "264 to 266 °C"),
    ("CCCN(CCC)c1nc2c(N3CCCCCC3)nc(N3CCOCC3)cc2c(=O)[nH]1", "250 °C"),
    ("Cc1noc(C)c1Cn1nnnc1-c1cccc(Cl)c1Cl", "176 to 178 °C"),
]

Given the entry Nc1nc(N)c2nc(CNc3ccc(Cl)cc3)cnc2n1 , report its measured melting point.
> 360 °C

Reported melting point, molecule O=C(c1cc(C(F)(F)F)cc(C(F)(F)F)c1)N1CCN(C(=O)CN2CC3CC2CN3Cc2ccccc2)C(c2ccc(Cl)c(Cl)c2)C1 (racemic) : ____
75 to 77 °C

Value lookup for melting point; key = Cc1ccccc1C(O)c1cncnc1C(C)(C)C (configuration not stated)
125 to 127 °C

Need melting point, item O=[N+]([O-])c1ccc(Oc2ccc(C(c3ccc(Oc4ccc([N+](=O)[O-])c(O)c4)cc3)(C(F)(F)F)C(F)(F)F)cc2)cc1O
148 to 151 °C

May I ask what melting point has been recorded for COC(=O)C(C)(C)OCc1cc2cc(C(F)(F)F)ccc2n1S(=O)(=O)c1ccc2c(c1)OCCN2C ?
96 to 98 °C

Quick one: melting point of O=C(O)COc1cccc2c1CCC(Cc1coc(C(c3ccccc3)c3ccccc3)n1)C2 (configuration not stated) ?
158 to 160 °C

So what's the measured melting point for this one? COc1cccc(-c2cc(=O)c3cc(OCCCCCN4CCC(O)CC4)ccc3o2)c1
115 to 116 °C

Name the reported melting point value associated with the molecule COc1cc(CCC(=O)O)ccc1OCCCc1cn(-c2ccc(C(F)(F)F)cn2)nc1C
136 to 137 °C

====

Below, each of the compounds is paired with its reported melting point value.

Below: 3 compounds and their reported melting point.
# compound, melting point
measured = [
    ("CC(=O)N(Cc1ccccc1)CC(CCN1CCC(O)(c2ccccc2)CC1)c1ccc(Cl)c(Cl)c1 (centres undefined)", "57 to 62 °C"),
    ("Cc1cccc(C2C(C#N)=C(C(C)C)Nc3n[nH]cc32)c1[N+](=O)[O-] (centres undefined)", "261 °C"),
    ("CS(=O)(=O)c1ccc(Oc2cc(OC3CCOCC3)c3[nH]c(C4=NCC(CC(N)=O)S4)cc3c2)cn1 (centres undefined)", "136 to 138 °C"),
]

# input for lookup
Record request: melting point value, item Cc1ccc(Cc2cnc(NCCCN(Cc3ccccc3)c3ccccn3)[nH]c2=O)cn1
90 to 96 °C

====

Below, each entry is listed alongside its reported melting point.

# molecule, melting point
measured = [
    ("CCOC(=O)NCCc1cc2ccccc2s1", "65 to 66 °C"),
    ("O=C1CCC(c2ccc(Cl)cc2)CN1CNC(=S)NCN1CC(c2ccc(Cl)cc2)CCC1=O (centres undefined)", "212 to 213 °C"),
    ("CN(C)C(=O)c1cc2c(OC[C@H](O)CN3CCC(c4ccc5ccccc5c4)CC3)cccc2[nH]1", "158 to 160 °C"),
    ("O=C(c1cc2ccccc2[nH]1)N1CCCCC1", "213 to 214 °C"),
    ("N#Cc1c(Cl)cc(Cn2nnc(C(N)=O)c2N)cc1Cl", "238 to 240 °C"),
]

Data request, read-out melting point, for C=Cn1ccnc1C(O)(c1ccc(C(C)(C)C)cc1)c1ccc(C(C)(C)C)cc1
169 to 170 °C

// returns reported melting point for input CN1C(=O)c2ccccc2Nc2ccccc21
210 to 211 °C

Record request: melting point value, item COc1csc(Cc2c(C(C)C)cc(C(C)C)c(C(C)O)c2-c2ccc(F)cc2)c1 (single isomer, unassigned; (+))
140 to 142 °C

I'd like to know its melting point. The molecule in question is CCCCCCCCOc1ccc(-c2ccc(C(C)OC(=O)CCCCC)cc2)cc1 (single isomer, unassigned; (-))
60.8 °C

Looking for the measured melting point of Nc1ccc(CP2(=O)OCCO2)cc1 , can you help?
183 to 184 °C

Query: melting point; subject: C/C=C(\c1ccccc1)c1cc2cc(OC)ccc2[nH]1
128 to 130 °C

Please report the recorded melting point for Cc1ccccc1-c1nc2c3ccccc3ccn2c1NC(C)c1ccccc1 (centres undefined) .
160 to 162 °C

What value of measured melting point is listed for CCCn1cc2c(C3C(=O)Nc4ccc(Br)cc43)nc(NCc3ccncc3)nc2n1 (centres undefined) ?
> 300 °C

====

Below: a set of entries, each annotated with reported melting point.

# annotated cases, reported melting point shown
# molecule, melting point
data = [
    ("CC(C)C1CCC(C)(OC(=O)OC2(C)CCC(C(C)C)CC2)CC1 (stereo not given)", "101 to 102 °C"),
    ("CN(N)c1nc(-c2ccccc2)c2cc(Cl)ccc2n1", "156 °C"),
]

Which melting point is reported for this molecule? N#Cc1ccc(-c2cn(-c3ccc(I)cc3)c(SCCO)n2)cc1
148 to 172 °C

Need melting point of CS(=O)(=O)c1ccc(-c2oc3ccccc3c(=O)c2-c2ccc(F)cc2)cc1 , thanks.
98 to 100 °C

What value of measured melting point is listed for CCOC(=O)c1cn(-c2ncnn2C)c2nc(Cl)c(F)cc2c1=O ?
256 to 263 °C

====

measured-endpoint: melting point

# compound, melting point
rows = [
    ("Cc1oc(-c2ccc(Cl)cc2)nc1CC(=O)O", "160 to 161 °C"),
    ("COC(=O)COc1ccc(-c2cccc3sc4ccccc4c23)cc1", "148 to 150 °C"),
    ("Cc1csc(N2CCN(Cc3ccc(C(=O)Nc4ccc(F)cc4)cc3)C2=O)n1", "206 to 207 °C"),
]

Using the record for CCOc1ccc(C=[N+]([O-])C2CCCC2)cc1 , report its melting point.
95.1 °C

Name the recorded melting point for O=C(c1ccc2nonc2c1)N1CCC(O)CC1 .
132 to 136 °C

I am curious: what melting point value has been reported for CC(C)(C(=O)OCc1ccccc1)N1COC(CO)=C(c2ccccc2)C1=O ?
115 to 116 °C

Which melting point value is on record for CN(C)CCSc1nc2ccccc2n1CCc1ccccc1 ?
38 to 39 °C

Fill in the blank: the reported melting point of COc1ccc(-c2nc3sccn3c2/C=C/C(=O)c2cc(OC)c(OC)c(OC)c2)cc1 is ____.
177 to 179 °C

Which melting point value is on record for CCN(CC)C(=O)NCCc1cccc(-c2nc(=O)c3ccccc3s2)n1 ?
175 to 176 °C

Bench note: what melting point did N[C@@H](Cc1ccc(C(F)(F)F)cc1)[C@H](O)c1ccc(Oc2ccccc2)cc1 (racemic) show?
114 to 115 °C

I am curious: what melting point value has been reported for CC(C)N1Cc2cncn2C(c2ccc(C#N)cc2)C1=O (stereo not given) ?
122 to 124 °C

Recorded melting point of CCOc1cc(=O)oc2cc(CBr)ccc12 , please.
150 to 153 °C

====

As shown below, each of these molecules has a reported melting point value.

# molecule, melting point
records = [
    ("COc1ccc(N2C(=O)C3=C(SCCS3)C2CC(=O)N2CCCCC2)cc1 (stereo not given)", "163 to 164 °C"),
    ("CCOC(=O)CN1C(=O)N(c2ccc(C)cc2)C2(CCCCC2)C1=O", "132 °C"),
    ("Cn1c(-c2ccccc2)cc2oc(=O)nc(-c3ccccc3)c2c1=O", "178 to 179 °C"),
    ("Cc1csc(N)c1S(=O)(=O)NC(=S)NC(C)C", "118 to 120 °C"),
    ("C1=CC2OC1c1cc3c(cc12)OCO3", "111 to 112 °C"),
    ("Cc1c(NC(=O)CC(C)(C)C)cc2c(c1C)O[C@@H](C)[C@H]2c1ccc(C(C)C)cc1 (relative stereo)", "94 to 95 °C"),
    ("CCc1c2n(c3ccccc13)C(=O)C(=Cc1ncn(C(c3ccccc3)(c3ccccc3)c3ccccc3)c1C)CC2", "217 to 220 °C"),
    ("CC(=O)c1ccc(NS(=O)(=O)c2sc3ccc(F)cc3c2C)c(S(C)(=O)=O)c1", "174 to 175 °C"),
    ("Cc1nnc(Cc2ccc(NC(=O)/C=C/c3cnn(C)c3-c3ccc(F)cc3)cc2)o1", "151 to 152 °C"),
]

Would you kindly look at the next entry?
Entry COC(C)=CC(=O)NC1CCC(C)CC1 (stereo not given) : reported melting point = ?
125 °C

====

Catalogue of molecules with associated melting point

Known results for molecules:
# molecule, measured-endpoint, value-reported
data = [
    ("CC(C)(O)c1ccc(-c2cnc3[nH]c(=O)n(CC4CCCCC4)c3n2)cn1", "melting point", "> 250 °C"),
    ("Cc1ccc(C)n1-c1cc2[nH]c(=O)c(=O)n(CC(=O)NCc3ccccc3)c2cc1Cl", "melting point", "244 °C"),
    ("CN(c1cccc2cc(C(=O)NCC3(SCc4ccccc4)CCC4(CC3)OCCO4)[nH]c12)S(=O)(=O)c1cccs1", "melting point", "211 to 212 °C"),
    ("O=C(Nc1ccc(Cl)c(Cl)c1)Oc1cccc(N=C=S)c1", "melting point", "118 to 123 °C"),
    ("CCN1C(=O)C(C)(C)C(=O)N(C)c2cc(CN(CCn3ccc4oc(C)cc4c3=O)Cc3cccnc3Cl)ccc21", "melting point", "159 to 161 °C"),
    ("CNC(=O)N1Cc2ccccc2CCC1=O", "melting point", "140 to 141 °C"),
    ("Cc1cc2c(cc1C(=O)c1c(C(F)(F)F)ccnc1Cl)OCO2", "melting point", "119 to 122 °C"),
    ("O=C(N[C@H](Cc1ccc(C(F)(F)F)cc1)[C@@H](O)c1ccc(F)cc1)c1cccc2cc3ccccc3cc12 (racemic)", "melting point", "227 to 228 °C"),
    ("COc1cccc(CCC(=O)CCCCCC(=O)O)c1", "melting point", "41 to 43 °C"),
    ("Cc1ccc(C(=O)NCc2ccncc2)cc1", "melting point", "227 °C"),
]

Recorded melting point for CNC1CN(c2nc3c(cc2F)c(=O)c(C(=O)O)cn3C2CC2)C1 , please?
206 to 212 °C

Returns the measured melting point for the input molecule. Input: O=C(O)C=CC=CC=CC1=Cc2cc(-c3ccccc3)ccc2OC1
260 °C

So what's the measured melting point for this one? COc1ccc(CN(C)C(=O)CCCOc2ccc3c(c2)CN2CC(=O)NC2=N3)cc1
256 to 258 °C

Please look up its melting point: Cc1ccc(SCc2ccc(OC(F)(F)F)cc2)cc1
74 to 76 °C

Need melting point of CCCN(c1ccncn1)n1cc(C)c2ccccc21 , thanks.
74 to 76 °C

I am curious: what melting point value has been reported for CC(=O)c1ccc(-c2ccc(N(Cc3ccccc3)Cc3ccccc3)cc2)c(C)c1 ?
145 to 146 °C

Entry COc1ccc([C@H](Cc2ccncc2)c2ccccc2)cc1O has what melting point?
158 to 159 °C

What does the record list as melting point for CCOC(=O)C(CO)NC(=O)C(N)(CC(=O)O)NC(=O)C(C)C (stereo not given) ?
175 to 178 °C

Which measured melting point value corresponds to O=C(O)CN1CCC(Cc2ccccc2)CC1 ?
250 to 252 °C

// lookup melting point for COc1ccc(CNc2nc(-n3ccnc3)nc3sc(C)cc23)cc1OC
207 °C
